experiment: Hemolysis assay with human erythrocytes; type: cell-based; details: human, human erythrocyte suspension, pH 7.4, human RBC suspension, compound at 10 µg/mL, PBS pH 7.4, mean ± SD
recorded metric: hemolysis at 10 µg/mL (%)
Answers are plain numbers, in %.

1. Cc1ccccc1C1N(C(C)(C)C)C(=O)C1(Cl)Cl (centres unmarked) [2c]: 0.01

Respectfully, I request hemolysis at 10 µg/mL for each entry included below.
1. CC(C)N1C(=O)C(Cl)(Cl)C1c1ccccc1 (centres unmarked) [2j]
2. CC(C)(C)N1C(=O)C(Cl)(Cl)C1c1cc(F)cc(F)c1 (centres unmarked) [2h]
3. Cc1ccc(C2N(C(C)(C)C)C(=O)C2(Cl)Cl)cc1 (centres unmarked) [2e]

1: 0.01; 2: 0.05; 3: 0.01
